- Test system: Staphylococcus aureus Sa2 (MRSA, cystic fibrosis isolate)
- PROCEDURE_SUMMARY: growth reduction vs untreated control (OD550); higher = stronger antibacterial activity
- MEASUREMENT_SETUP: 0.1 mM; 24 h
Counter-ions that a name gives are not always drawn.
EXPERIMENTAL_READOUT: growth reduction (%)
Express it in %; write the number only.

Which value of growth reduction has been reported for N#CC(c1ccc(Cl)cc1)c1c(Cl)cc(-n2ncc(=O)[nH]c2=O)cc1Cl (stereo not given) in the records?
100

Sample N[C@@H]1CC[C@@H](c2ccc(Cl)c(Cl)c2)c2ccccc21 [Dasotraline (hydrochloride)] — what was its growth reduction?
100

Given C#C[C@]1(O)CC[C@H]2[C@@H]3CCc4cc(OC)ccc4[C@H]3CC[C@@]21C , state its recorded growth reduction.
92.6

So what does the record say about growth reduction for Cc1nc(C(=O)NCC(=O)O)c(O)c2ccc(Oc3ccccc3)cc12 ?
99.9

Given Cc1cc(SCc2sc(-c3ccc(C(F)(F)F)cc3)nc2C)ccc1OCC(=O)O , state its recorded growth reduction.
100
